Tested on: PC-3 prostate
Assay: NCI tumour cell line growth inhibition, 48 h
Documented GI50 across a set of molecules

{"columns": ["molecule", "GI50"],
 "data": [
  ["CCOC(=O)c1cnc2ccc(Cl)cc2c1NCCCN(C)C", "27.3 µM"],
  ["O=C(Nc1ccc(Cl)c(Cl)c1)Nc1ccc(Cl)c([N+](=O)[O-])c1", "0.921 µM"],
  ["CC(C)(O)Cn1c(=O)c(Oc2ccc(F)cc2F)cc2cnc(NC3CCOCC3)nc21", "> 25 µM"]
]}

Task: Please look at this molecule and report its GI50: O=P(O)(O)OC1C(OP(=O)(O)O)C(OP(=O)(O)O)C(OP(=O)(O)O)C(OP(=O)(O)O)C1OP(=O)(O)O (stereo not given)
Result: > 2000 µM

Task: Please look at this molecule and report its GI50: "COc1ccc(C(=O)/C=C/c2ccc(Cl)cc2)cc1S(N)(=O)=O"
Result: 2.24 µM

Task: Please look at this molecule and report its GI50: C=C1C(=O)OC(CCCCCCCC)C1C(=O)O (stereo not given)
Result: 20.2 µM

Task: Please look at this molecule and report its GI50: COc1ccc(C(=O)CC2(O)C(=O)Nc3c(Cl)ccc(Cl)c32)cc1 (stereo not given)
Result: 2.8 µM

Task: Please look at this molecule and report its GI50: "CCOC(=O)c1cc2c(n1Cc1cccc(OC)c1)-c1oncc1CC2"
Result: 5.19 µM

Task: Please look at this molecule and report its GI50: "COc1ccc(C(=O)c2cc3c(N)c(C(=O)Nc4cccc(Cl)c4)sc3nc2C)cc1"
Result: 1.48 µM

Task: Please look at this molecule and report its GI50: COc1cc([C@@H]2c3cc4c(cc3[C@H](OC3OC5COC(c6ccccc6)OC5C(O)C3O)[C@H]3COC(=O)[C@H]23)OCO4)cc(OC)c1OC (stereo not given in full)
Result: 0.432 µM
